# Test system: HeLa Kyoto;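 note: HeLa Kyoto cells synchronized by double thymidine or nocodazole block, proteins quantified by TMT10plex mass spectrometry, three independent biological replicates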
# Assay: melting temperature (median over replicates), in situ; higher = more thermally stable
# Condition: cell cycle stage: mitosis
Measurement name: melting temperature (°C)
Give your result in °C as a bare value.

Sequence code: MRSARSTALNRGEQRAVRYYSHMKLNMAEEEDYMSDSFINVQEDIRPGLPMLRQIREARRKEEKQQEANLKNRQKSLKEEEQERRDIGLKNALGCENKGFALLQKMGYKSGQALGKSGGGIVEPIPLNIKTGKSGIGHEASLKRKAEEKLESYRKKIHMKNQAEEKAAEQFRMRLKNKQDEMKLEGDLRRSQRACQQLDVQKNIQVPREAWYWLRLEEETEEDEEEKEQDEDEYKSEDLSVLEKLQILTSYLREEHLYCIWCGTAYEDKEDLSSNCPGPTSADHD [GPATCH11]
melting temperature [°C]: 52.3

Q: Tell me melting temperature reported for MAAAPLKVCIVGSGNWGSAVAKIIGNNVKKLQKFASTVKMWVFEETVNGRKLTDIINNDHENVKYLPGHKLPENVVAMSNLSEAVQDADLLVFVIPHQFIHRICDEITGRVPKKALGITLIKGIDEGPEGLKLISDIIREKMGIDISVLMGANIANEVAAEKFCETTIGSKVMENGLLFKELLQTPNFRITVVDDADTVELCGALKNIVAVGAGFCDGLRCGDNTKAAVIRLGLMEMIAFARIFCKGQVSTATFLESCGVADLITTCYGGRNRRVAEAFARTGKTIEELEKEMLNGQKLQGPQTSAEVYRILKQKGLLDKFPLFTAVYQICYESRPVQEMLSCLQSHPEHT [GPD1L]
A: 53
